# System: NCI-H460 lung
# MEASUREMENT DESCRIPTION: NCI tumour cell line growth inhibition, 48 h
Please respond with reported TGI for every item in the list.
One number for each entry, in µM.

STRUCTURE NOTATION	VALUE KIND	MEAS VALUE
CCCOc1cc2ccccc2cc1C(=O)Nc1nc(NC)c2c(ccc3nccc32)[nH]1	TGI	1.13
OC(c1ccc(Cl)cc1)(c1ccc(Cl)cc1)c1cncnc1	TGI	36.4
Cc1cc(C)c2c(n1)S(=O)(=O)N(CCCN1CCN(c3cccc(Cl)c3)CC1)/C(=C(\O)c1ccccc1)C2=O	TGI	52.5

IN: Name the recorded TGI for `CN(C)C(=O)OCc1nc2c(N3CCOCC3)nc(-c3ccccc3)nc2n1C` .
OUT: 3.52
